Tested on: Candida albicans
TEST_NAME: Synergistic antifungal activity against FLC-resistant Candida albicans SC5314 assessed as fractional inhibitory concentration index incubated for 24 hrs in presence of fluconazole by microdilution assay
Assay type: functional
RECORDED_ENDPOINT: fractional inhibitory concentration index (FICI)

> print(dat)
                                    compound     tested.target  value.measured
 1  COc1ccc2ccn(CCC(=O)NCCNCC(O)COC(Cn3cncn3)c3ccc(F)cc3F)c2c1 (stereo unspecified)  Candida albicans            0.26
 2  Cc1ccc2c(c1)CCN2CCC(=O)NCCNCC(O)COC(Cn1cncn1)c1ccc(F)cc1F (stereo unspecified)  Candida albicans            0.05
 3  COc1ccc2c(c1)N(CCC(=O)NCCNCC(O)COC(Cn1cncn1)c1ccc(F)cc1F)CC2 (stereo unspecified)  Candida albicans            0.56
 4  O=C(CCN1CCc2ccc(F)cc21)NCCNCC(O)COC(Cn1cncn1)c1ccc(F)cc1F (stereo unspecified)  Candida albicans            0.09
 5  CC1Cc2ccccc2N1CCC(=O)NCCNCC(O)COC(Cn1cncn1)c1ccc(F)cc1F (stereo unspecified)  Candida albicans            0.34
 6  O=C(CCN1CCc2cc(Cl)ccc21)NCCNCC(O)COC(Cn1cncn1)c1ccc(F)cc1F (stereo unspecified)  Candida albicans            0.07
 7  O=C(CCn1ccc2ccc(F)cc21)NCCNCC(O)COC(Cn1cncn1)c1ccc(F)cc1F (stereo unspecified)  Candida albicans            0.17
 8  O=C(CCn1ccc2ccc(Br)cc21)NCCNCC(O)COC(Cn1cncn1)c1ccc(F)cc1F (stereo unspecified)  Candida albicans            0.06
 9  O=C(CCN1CCc2ccc(Cl)cc21)NCCNCC(O)COC(Cn1cncn1)c1ccc(F)cc1F (stereo unspecified)  Candida albicans            0.05
10  O=C(CCN1CCc2ccc(Br)cc21)NCCNCC(O)COC(Cn1cncn1)c1ccc(F)cc1F (stereo unspecified)  Candida albicans            0.04
11  O=C(CCN1CCc2cc(Br)ccc21)NCCNCC(O)COC(Cn1cncn1)c1ccc(F)cc1F (stereo unspecified)  Candida albicans            0.01
12  O=C(CCn1ccc2cc(Br)ccc21)NCCNCC(O)COC(Cn1cncn1)c1ccc(F)cc1F (stereo unspecified)  Candida albicans            0.06
13  O=C(CCn1ccc2cc(Cl)ccc21)NCCNCC(O)COC(Cn1cncn1)c1ccc(F)cc1F (stereo unspecified)  Candida albicans            0.09
14  O=C(CCn1ccc2ccccc21)NCCNCC(O)COC(Cn1cncn1)c1ccc(F)cc1F (stereo unspecified)  Candida albicans            0.25
15  O=C(CCN1CCc2ccccc21)NCCNCC(O)COC(Cn1cncn1)c1ccc(F)cc1F (stereo unspecified)  Candida albicans            0.21
16  O=C(CCn1ccc2ccc(Cl)cc21)NCCNCC(O)COC(Cn1cncn1)c1ccc(F)cc1F (stereo unspecified)  Candida albicans             0.1
